cond: in ethanol, 328.15 K
measured quantity: solubility (mole fraction)
Just the number.

Field request: solubility (mole fraction) | item: COC1CCC2(CC1)NC(=O)C(c1cc(C)ccc1C)=C2O (stereo unspecified)
0.00681

----------
cond: in water, 328.15 K
measured quantity: solubility (mole fraction)

Field request: solubility (mole fraction) | item: COC1CCC2(CC1)NC(=O)C(c1cc(C)ccc1C)=C2O (stereo unspecified)
1.05e-05

----------
cond: in n-propanol, 328.15 K
measured quantity: solubility (mole fraction)

Field request: solubility (mole fraction) | item: COC1CCC2(CC1)NC(=O)C(c1cc(C)ccc1C)=C2O (stereo unspecified)
0.00799

Values from BigSolDB 2.1
